The reader will find reported IC50 values listed item by item below.
- SUBJECT OF TEST: Human PKMYT1 (Homo sapiens, UniProt Q99640)
- Construct: Human PKMYT1 75-362 was cloned as a TEV cleavable 6xHis fusion; 6xHis (TEV cleavable) (cleaved yes); made in house; host or cells: bacterial cells
- Sequence (Q99640 75-362): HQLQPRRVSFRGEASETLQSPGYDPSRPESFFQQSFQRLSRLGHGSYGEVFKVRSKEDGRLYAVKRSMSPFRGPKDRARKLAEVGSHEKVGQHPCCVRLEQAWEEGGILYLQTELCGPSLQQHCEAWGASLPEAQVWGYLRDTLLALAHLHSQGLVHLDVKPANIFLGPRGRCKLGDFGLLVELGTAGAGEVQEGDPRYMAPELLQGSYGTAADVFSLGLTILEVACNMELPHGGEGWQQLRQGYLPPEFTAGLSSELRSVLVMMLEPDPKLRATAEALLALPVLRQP
- METHOD DESCRIPTION: PKMYT1 biochemical ADP-Glo enzymatic assay
- CONDITIONS: PKMYT1 kinase domain 15 nM; ADP-Glo; banded values
- Description: Human PKMYT1 75-362 was cloned as a TEV cleavable 6xHis fusion in bacterial cells. After purification on a Ni++HiTrap Chelating HP column, the His-tag was cleaved using TEV protease. […] PKMYT1 biochemical assay: Inhibition of PKMYT1 was assessed using the ADP-Glo™ Max Detection System from Promega. […] Inhibition of PKMYT1 by small molecule inhibitors results in a retardation of luminescence above background. The intrinsic ATPase activity of PKMYT1 was assessed according to the following protocol. […]

{"columns": ["MOLECULE", "IC50"],
 "data": [
  ["Cc1ccc(-c2cnn(C)c2)nc1Nc1ncc(C(=O)Nc2c(C)ccc(O)c2C)s1", "< 50 nM"],
  ["Cc1ccc(O)c(C)c1NC(=O)c1cnc(Nc2cn(C)nc2C(F)(F)F)s1", "50 to 1000 nM"],
  ["CCN(C(=O)C(CO)n1cc(C)c(Nc2ncc(C(=O)Nc3c(C)ccc(O)c3C)s2)n1)C1CC1 (stereo not drawn)", "< 50 nM"],
  ["Cc1ccc(O)c(C)c1NC(=O)c1cnc(Nc2nn(CCBr)cc2Cl)s1", "< 50 nM"],
  ["Cc1c(O)ccc(Br)c1NC(=O)c1cnc(Nc2ccn(C)n2)s1", "50 to 1000 nM"],
  ["Cn1ccc(Nc2ncc(C(=O)Nc3c(F)ccc(O)c3Cl)s2)n1", "50 to 1000 nM"],
  ["Cc1ccc(O)c(C)c1NC(=O)c1cnc(Nc2ncccc2Cl)s1", "< 50 nM"],
  ["Cc1cn(C)nc1Nc1nnc(C(=O)Nc2c(C)ccc(O)c2C)s1", "< 50 nM"]
]}

Moving on to the next molecule.
q: Dear colleague, I am looking for the recorded IC50 of the following molecule: Cc1cn(CC(=O)N2CCCC2C)nc1Nc1ncc(C(=O)Nc2c(C)ccc(O)c2C)s1 (stereo not drawn)
a: < 50 nM
